# Test system: 485368-065-R4-J2-PDC spheroids with HUVEC/MSC, viability
# measurement_description: Anticancer human tumor 485368-065-R4-J2-PDC patient-derived pancreatic carcinoma cell line growth inhibition [TAK]
# condition_notes: second compound 0.949 µM; first compound 0.1 µM; hits give low values
Below, each of the molecules is paired with its reported viability, T/C value.
// units = %; emit number, no label

[
  {
    "molecule": "COc1c(OCCCN2CCOCC2)ccc2c3n(c(=NC(=O)c4cnc(N)nc4)nc12)CCN3 + CC(C)NCC(C(=O)N1CCN(c2ncnc3c2C(C)CC3O)CC1)c1ccc(Cl)cc1",
    "value_unit": "%",
    "value_measured": 61.1
  },
  {
    "molecule": "CC(C)n1nc(-c2ccc3oc(N)nc3c2)c2c(N)ncnc21 + CC(C)NCC(C(=O)N1CCN(c2ncnc3c2C(C)CC3O)CC1)c1ccc(Cl)cc1",
    "value_unit": "%",
    "value_measured": 40.3
  }
]

QUERY: Quick one: viability, T/C of CC(C)(C)c1nc(-c2cccc(NS(=O)(=O)c3c(F)cccc3F)c2F)c(-c2ccnc(N)n2)s1 + CC(C)NCC(C(=O)N1CCN(c2ncnc3c2C(C)CC3O)CC1)c1ccc(Cl)cc1 ?
RESULT: 91.3

* * *

# Test system: 485368-065-R4-J2-PDC spheroids with HUVEC/MSC, viability
# measurement_description: Anticancer human tumor 485368-065-R4-J2-PDC cell line growth inhibition [TAK];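 also: spheroids exposed to compounds for seven days before readout; 100% = DMSO vehicle control wells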
# condition_notes: second compound 0.949 µM; first compound 0.001 µM; hits give low values
assay_endpoint: viability, T/C (%)
Write it as a number; the unit % goes unstated.

Worked cases, viability, T/C given:
[
  {
    "molecule": "CC(C)n1nc(-c2ccc3oc(N)nc3c2)c2c(N)ncnc21 + CC(C)NCC(C(=O)N1CCN(c2ncnc3c2C(C)CC3O)CC1)c1ccc(Cl)cc1",
    "study_system": "485368-065-R4-J2-PDC spheroids with HUVEC/MSC, viability",
    "value_unit": "%",
    "viability, T/C": 99.3
  },
  {
    "molecule": "COC1CC2CCC(C)C(O)(O2)C(=O)C(=O)N2CCCCC2C(=O)OC(C(C)CC2CCC(OCCO)C(OC)C2)CC(=O)C(C)C=C(C)C(O)C(OC)C(=O)C(C)CC(C)C=CC=CC=C1C (centres undefined) + CC(C)NCC(C(=O)N1CCN(c2ncnc3c2C(C)CC3O)CC1)c1ccc(Cl)cc1",
    "study_system": "485368-065-R4-J2-PDC spheroids with HUVEC/MSC, viability",
    "value_unit": "%",
    "viability, T/C": 106
  },
  {
    "molecule": "CC(C)CC(NC(=O)C(Cc1ccccc1)NC(=O)c1cnccn1)B(O)O (centres undefined) + CC(C)NCC(C(=O)N1CCN(c2ncnc3c2C(C)CC3O)CC1)c1ccc(Cl)cc1",
    "study_system": "485368-065-R4-J2-PDC spheroids with HUVEC/MSC, viability",
    "value_unit": "%",
    "viability, T/C": 98.4
  }
]

Now look at this one.
QUERY: # input molecule: CC(C)CC(NC(=O)CNC(=O)c1cc(Cl)ccc1Cl)B1OC(=O)CC(CC(=O)O)(C(=O)O)O1 (centres undefined) + CC(C)NCC(C(=O)N1CCN(c2ncnc3c2C(C)CC3O)CC1)c1ccc(Cl)cc1 ; wanted: its viability, T/C
RESULT: 99
